Molecular target: P2X7 (IL-1β release from THP-1 cells) (Homo sapiens (Human))
Assay: IL-1β release assay
Assay type: cell-based
Details: THP-1 cells, LPS primed, 0.8 mM BzATP; mature IL-1β by sandwich ELISA; read-out: hTHP-1/IL-ib IC50
Description: IL-1β release assay: The activation of P2X7 by ATP leads to a fast transient activation of cells resulting in influx of Ca^2+ followed by conversion of pro-IL-1β to active IL-1β. The functional activity of P2X7 compounds was measured by the release of mature […] in the culture medium of THP-1 cells, detected by sandwich ELISA. […] The cells were centrifuged, supernatant was collected and the presence of mature IL-1β was detected using Dual human IL-1b kit following manufacturer's instruction. […]
pIC50: −log10 of the molar value.
MEASURE: pIC50

O=C(NCC1CCC(F)(F)CC1)c1cn(CC(=O)N2CCOCC2)c2cccc(Cl)c12 [Compound 190]
6.30 to 7.00
O=C(NCC1(N2CCN(c3ccccc3)CC2)CCCCC1)c1cn(C2COC2)c2cccc(Cl)c12 [Compound 51]
> 8.00
CC1CC(F)(F)CC(O)(CNC(=O)c2cn(CC(F)(F)F)c3cccc(Cl)c23)C1 (centres unmarked) [Compound 1]
< 6.00
O=C(NC[C@@H]1CCCC[C@H]1O)c1cn(C2COC2)c2cccc(Cl)c12 [Compound 87]
< 6.00
O=C(NCCC1(O)CCCC1)c1cn(C2COC2)c2cccc(Cl)c12 [Compound 45]
< 6.00
COCCn1cc(C(=O)NCC2(O)CCCCC2O)c2c(Cl)cccc21 (centres unmarked) [Compound 18]
< 6.00
COCCn1cc(C(=O)NCCc2ccc(Cl)cc2Cl)c2c(Cl)cccc21 [Compound 36]
< 6.00
O=C(NCC1(O)CCCC(C(F)(F)F)C1)c1cn(C2CCOC2)c2cccc(Cl)c12 (centres unmarked) [Compound 100]
< 6.00

###

target: P2X7 (IL-1β release from THP-1 cells) (Homo sapiens (Human), UniProt Q99572); assay: IL-1β release assay; type: cell-based
Sequence (Q99572 whole entry): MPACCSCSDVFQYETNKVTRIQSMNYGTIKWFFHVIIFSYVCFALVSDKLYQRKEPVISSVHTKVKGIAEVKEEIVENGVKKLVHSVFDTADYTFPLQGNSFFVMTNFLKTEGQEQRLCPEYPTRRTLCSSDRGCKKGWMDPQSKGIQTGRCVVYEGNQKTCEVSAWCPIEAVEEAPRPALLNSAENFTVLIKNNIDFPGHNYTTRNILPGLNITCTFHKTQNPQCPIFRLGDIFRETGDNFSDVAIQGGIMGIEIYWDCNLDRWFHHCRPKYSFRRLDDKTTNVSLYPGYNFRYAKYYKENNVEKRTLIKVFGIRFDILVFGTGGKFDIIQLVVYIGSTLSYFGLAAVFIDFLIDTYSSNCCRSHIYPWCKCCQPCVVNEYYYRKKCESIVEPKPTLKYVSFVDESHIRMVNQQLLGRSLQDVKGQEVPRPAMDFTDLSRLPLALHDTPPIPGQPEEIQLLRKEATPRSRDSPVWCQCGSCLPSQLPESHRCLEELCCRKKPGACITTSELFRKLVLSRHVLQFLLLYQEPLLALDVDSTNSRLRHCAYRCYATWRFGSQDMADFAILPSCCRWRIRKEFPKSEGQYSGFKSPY
MEASURE: IC50

O=C(NCC1(O)CCC(F)(F)CC1)c1cn(C2COC2)c2cccc(Cl)c12
101 to 500 nM
O=C(NCC1(O)CCC(F)(F)CC1)c1cn(CC2CCCCO2)c2cccc(Cl)c12 (stereo not shown)
10 to 100 nM
O=C(NCC1CCC(F)(F)CC1)c1cn(C2CN(C3CC3)C2)c2cccc(Cl)c12
500 to 999 nM
COCCn1cc(C(=O)NC[C@@]2(O)CCCC(F)(F)C2)c2c(Cl)cccc21
10 to 100 nM
O=C(NCC1CCC(F)(F)CC1)c1cn(C2COC2)c2cccc(Cl)c12
10 to 100 nM
O=C(NCC1CCC(F)(F)CC1)c1cn(CCN2CCCC2=O)c2cccc(Cl)c12
101 to 500 nM
O=C(NC[C@@]1(O)CCCC(F)(F)C1)c1cn(C[C@@H]2CCCO2)c2cccc(Cl)c12
500 to 999 nM
O=C(NCC1(O)CCCC(F)(F)C1)c1cn(CC2CCOC2)c2cccc(Cl)c12 (stereo not shown)
10 to 100 nM
O=C(NC[C@]1(O)CCCC(F)(F)C1)c1cn(CCN2CCCC2)c2cccc(Cl)c12
101 to 500 nM
CC1CCCC(O)(CNC(=O)c2cn(C3COC3)c3cccc(Cl)c23)C1 (stereo not shown)
10 to 100 nM
CC(C)N1CCCC1Cn1cc(C(=O)NCC2CCC(F)(F)CC2)c2c(Cl)cccc21 (stereo not shown)
101 to 500 nM
O=C(NCC1(O)CCCCC1)c1cn(C2COC2)c2cccc(Cl)c12
101 to 500 nM
CC1(C)CCCC(O)(CNC(=O)c2cn(C3CCOC3)c3cccc(Cl)c23)C1 (stereo not shown)
101 to 500 nM
CN(C)C(=O)Cn1cc(C(=O)NCC2(O)CCC(F)(F)CC2)c2c(Cl)cccc21
10 to 100 nM
O=C(NCC1CCC(F)(F)CC1)c1cn(CCC(F)(F)F)c2cccc(Cl)c12
10 to 100 nM
CN1CC(F)(F)C[C@H]1Cn1cc(C(=O)NCC2CCC(F)(F)CC2)c2c(Cl)cccc21
500 to 999 nM
CC(C)OCCn1cc(C(=O)NCC2CCC(F)(F)CC2)c2c(Cl)cccc21
101 to 500 nM
O=C(NCC1CCC(F)(F)CC1)c1cn(CC(=O)N2CCCCC2)c2cccc(Cl)c12
101 to 500 nM
O=C(NCC1(O)CCC(F)(F)CC1)c1cn(CC(F)(F)F)c2cccc(Cl)c12
101 to 500 nM
O=C(NC[C@@H]1CCCC(F)(F)C1)c1cn(C2COC2)c2cccc(Cl)c12
101 to 500 nM
COCCn1cc(C(=O)NCC2(O)CCCC(F)(F)C2)c2c(Cl)cccc21 (stereo not shown)
10 to 100 nM
O=C(NCC1CCC(F)(F)CC1)c1cn(CC2CCO2)c2cccc(Cl)c12 (stereo not shown)
10 to 100 nM
O=C(NCC1CCC(F)(F)CC1)c1cn(C2CCOC2)c2cccc(Cl)c12 (stereo not shown)
101 to 500 nM
O=C(NCC1CCCC(F)(F)C1)c1cn(C2COC2)c2cccc(Cl)c12 (racemic)
101 to 500 nM
O=C(NCC1CCC(F)(F)CC1)c1cn(C[C@@H]2CCCN2)c2cccc(Cl)c12
10 to 100 nM
C[C@@H]1CCC[C@](O)(CNC(=O)c2cn(CCC(F)F)c3cccc(Cl)c23)C1
101 to 500 nM
O=C(NCC1CCC(F)(F)CC1)c1cn(CC2CCCN2C2CC2)c2cccc(Cl)c12 (stereo not shown)
10 to 100 nM
CC1(Cn2cc(C(=O)NCC3CCC(F)(F)CC3)c3c(Cl)cccc32)CCN1 (stereo not shown)
500 to 999 nM
O=C(NC[C@@]1(O)CCCC(F)(F)C1)c1cn(C2COC2)c2cccc(Cl)c12
101 to 500 nM
C[C@H]1CCC[C@@](O)(CNC(=O)c2cn(CC(F)(F)F)c3cccc(Cl)c23)C1
10 to 100 nM
COCCn1cc(C(=O)NCCc2cccs2)c2c(Cl)cccc21
101 to 500 nM
COCCn1cc(C(=O)NCC2CCC(F)(F)CC2)c2c(C(F)(F)F)cccc21
101 to 500 nM
O=C(NC[C@H]1CCCC(F)(F)C1)c1cn(C2COC2)c2cccc(Cl)c12
10 to 100 nM
O=C(NCC1CCCC(C(F)(F)F)C1)c1cn(C2COC2)c2cccc(Cl)c12 (stereo not shown)
101 to 500 nM

###

target: P2X7 (IL-1β release from THP-1 cells) (Homo sapiens (Human)); test: IL-1β release assay; format: cell-based
pIC50: −log10 of the molar value.
MEASURE: pIC50

O=C(NCC1CCC(F)(F)CC1)c1cn(CCOC(F)F)c2cccc(Cl)c12
6.30 to 7.00
O=C(NCC1(O)CCC(F)(F)CC1)c1cn(C[C@@H]2CCCO2)c2cccc(Cl)c12
6.30 to 7.00
O=C(NCC1(O)CCC(F)(F)CC1)c1cn(CC2CCCO2)c2cccc(Cl)c12 (centres unmarked)
6.30 to 7.00
COCCn1cc(C(=O)NCC2(O)CCCCC2)c2c(Cl)cccc21
6.30 to 7.00
O=C(NCC1CCC(F)(F)CC1)c1cn(C[C@H]2CCN2)c2cccc(Cl)c12
6.30 to 7.00
O=C(NCC1CCC(F)(F)CC1)c1cn(CC(=O)N2CCCC2)c2cccc(Cl)c12
7.00 to 8.00
CC1CC(F)(F)CC(O)(CNC(=O)c2cn(C3COC3)c3cccc(Cl)c23)C1 (centres unmarked)
6.00 to 6.30
O=C(NCC1CCC(F)(F)CC1)c1cn(CC2CCOC2)c2cccc(Cl)c12 (centres unmarked)
7.00 to 8.00

###

target: P2X7 (IL-1β release from THP-1 cells) (Homo sapiens (Human)); assay: IL-1β release assay; type: cell-based
pIC50: −log10 of the molar value.
MEASURE: pIC50

C[C@H]1CCC[C@@](O)(CNC(=O)c2cn(CCC(F)F)c3cccc(Cl)c23)C1
7.00 to 8.00
O=C(NCC[C@@H]1C[C@@H]2C=C[C@H]1C2)c1cn(C2COC2)c2cccc(Cl)c12
7.00 to 8.00
O=C(NCC1CCC(F)(F)CC1)c1cn(CCN2CCCC2)c2cccc(Cl)c12
6.30 to 7.00
O=C(NCC1CCC(F)(F)CC1)c1cn(CCOC2CC2)c2cccc(Cl)c12
6.30 to 7.00
O=C(NCC1CCC(F)(F)CC1)c1cn(C[C@H]2CCCO2)c2cccc(Cl)c12
7.00 to 8.00
O=C(NCC1(O)CCCC(F)(F)C1)c1cn(CC2CCN2)c2cccc(Cl)c12 (centres unmarked)
7.00 to 8.00
O=C(NCC1(O)CCCC(F)(F)C1)c1cn(C2COC2)c2cccc(Cl)c12 (racemic)
7.00 to 8.00
O=C(NCC1CCC(F)(F)CC1)c1cn(CC2CC(F)(F)C2)c2cccc(Cl)c12
6.00 to 6.30
O=C(NCC1(O)CCC(F)(F)CC1)c1cn(CCC(F)F)c2cccc(Cl)c12
6.30 to 7.00
O=C(NCC1CCC(F)(F)CC1)c1cn(CC2COCCN2)c2cccc(Cl)c12 (centres unmarked)
7.00 to 8.00
O=C(NCC1(O)CCC(F)(F)CC1)c1cn(CC2CCO2)c2cccc(Cl)c12 (centres unmarked)
6.30 to 7.00
COCCn1cc(C(=O)NCC2(c3ccc(C(F)(F)F)cc3)CCOCC2)c2c(Cl)cccc21
6.30 to 7.00
O=C(NCC1(O)CCC(F)(F)CC1)c1cn(CC2CCOC2)c2cccc(Cl)c12 (centres unmarked)
7.00 to 8.00
O=C(NCCCC(F)(F)F)c1cn(C2COC2)c2cccc(Cl)c12
6.00 to 6.30
CC1(C)CCCC(O)(CNC(=O)c2cn(C3COC3)c3cccc(Cl)c23)C1 (centres unmarked)
7.00 to 8.00
O=C(NCC1CC(C(F)(F)F)CC(F)(F)C1)c1cn(C2COC2)c2cccc(Cl)c12 (centres unmarked)
6.30 to 7.00
O=C(NCC1CCC(F)(F)CC1)c1cn(CC2CCNCC2)c2cccc(Cl)c12
6.30 to 7.00

FYI, the data here is from patent US10323000B2.
